- Tested on: BaF3 FLT3 I836S mutant cells
- Test name: MTT growth inhibition assay, BaF3 FLT3 I836S cells
- Format: cell-based
- Study conditions: BaF3 FLT3 I836S, no IL-3, 48 h, MTT; read-out: Proliferation IC50
Outcome measure: pIC50
Expect pIC50 as a plain number equal to -log10 of the molar concentration.

Could you share what pIC50 was measured for CNC(=O)[C@@]1(N)C[C@H]2O[C@]1(C)n1c3ccccc3c3c4c(c5c6ccccc6n2c5c31)C(=O)NC4 , tested on BaF3 FLT3 I836S mutant cells? 8.05

* * *

- Target under test: wild-type FLT3 (Homo sapiens, UniProt P36888)
- Sequence (P36888 27-993): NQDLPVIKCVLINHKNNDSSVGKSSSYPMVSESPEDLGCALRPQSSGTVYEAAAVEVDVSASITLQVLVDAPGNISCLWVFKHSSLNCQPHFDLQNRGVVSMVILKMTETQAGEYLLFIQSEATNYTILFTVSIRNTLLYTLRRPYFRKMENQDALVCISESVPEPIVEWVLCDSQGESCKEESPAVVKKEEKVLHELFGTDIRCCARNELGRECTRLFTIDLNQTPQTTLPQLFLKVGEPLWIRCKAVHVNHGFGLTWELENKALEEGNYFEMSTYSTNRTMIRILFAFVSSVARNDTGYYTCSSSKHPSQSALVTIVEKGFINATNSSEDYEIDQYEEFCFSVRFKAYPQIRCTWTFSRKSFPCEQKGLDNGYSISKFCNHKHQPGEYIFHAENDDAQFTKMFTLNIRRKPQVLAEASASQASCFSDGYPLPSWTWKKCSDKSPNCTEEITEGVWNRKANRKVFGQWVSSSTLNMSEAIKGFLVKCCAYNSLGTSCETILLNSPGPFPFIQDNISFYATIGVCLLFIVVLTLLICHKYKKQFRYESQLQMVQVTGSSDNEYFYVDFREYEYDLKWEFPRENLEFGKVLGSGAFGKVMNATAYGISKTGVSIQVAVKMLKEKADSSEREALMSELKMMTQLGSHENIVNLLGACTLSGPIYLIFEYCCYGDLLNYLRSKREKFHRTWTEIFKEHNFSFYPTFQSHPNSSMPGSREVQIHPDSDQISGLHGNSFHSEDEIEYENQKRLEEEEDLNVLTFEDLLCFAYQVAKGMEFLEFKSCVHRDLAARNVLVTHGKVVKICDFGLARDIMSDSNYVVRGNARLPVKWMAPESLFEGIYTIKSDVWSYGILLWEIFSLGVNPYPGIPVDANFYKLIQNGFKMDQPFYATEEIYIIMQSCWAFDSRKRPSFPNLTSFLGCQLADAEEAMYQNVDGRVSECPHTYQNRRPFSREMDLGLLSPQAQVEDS
- Test name: Wild-type FLT3 autophosphorylation in FL-stimulated BaF3/WT-FLT3 cells
- Study conditions: TKI 1 h, then 25 ng/ml human FLT3 ligand 15 min
Outcome measure: IC50 (nM)
Give just the number in nM; leave the unit off.

Entry Cc1cc2ncc(-c3ccccc3)nc2cc1C [AG1295] has what IC50? 500
